B1: Azoarcus group I ribozyme (parent)
chain: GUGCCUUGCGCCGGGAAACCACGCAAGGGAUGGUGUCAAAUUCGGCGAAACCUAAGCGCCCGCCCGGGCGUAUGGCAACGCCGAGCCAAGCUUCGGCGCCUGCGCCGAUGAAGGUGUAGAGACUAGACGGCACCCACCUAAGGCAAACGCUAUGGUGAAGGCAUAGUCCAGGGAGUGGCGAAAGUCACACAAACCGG

variants of: B1; test: reverse-splicing fitness (ratio to wild type); higher = more active; in vitro selection; Mg2+ level not given
Everything with reverse-splicing fitness lower than 0.01 is Condition not met; everything else, including exactly 0.01, is Condition met.

# example entries with known answers
| residue.change | group.label |
| --- | --- |
| A120U A145U C150U C169U U176G | Condition not met |
| C82U A111G A120C A145U U176A | Condition met |
| C82G A111C A120G A145U C169U U176C | Condition met |
| C82U A111C A120C A145U C169U U176C | Condition met |
| C82U A111C A120G A145U C150G C169A U176G | Condition not met |
| C82G C169G U176C | Condition met |
| C82A A111G A120C A145U C150G C169A U176C | Condition met |
| C82G A111U A145G C150U C169U | Condition met |
| C82A A111U A120G A145C C150A C169A U176A | Condition met |
| C82A A111C A120U A145G C150U C169G U176C | Condition not met |

Prompt: Does reverse-splicing fitness meet or surpass 0.01 for C82U A111C A120G C150A C169G U176A ?
Response: Condition met

Prompt: Same thing, different variant: A111U A120C A145C C169G U176A
Response: Condition met
